Hey, just so you know, these numbers are from patent US20250011448A1.

Known Kd of a selection of binders
# tested.system: T1, human TNFR2 extracellular domain with C-terminal 10×His tag (human, UniProt P20333 23-257)
# T1 construct: also called huTNFR2-His; His-tag-huTNFR2
# T1 sequence: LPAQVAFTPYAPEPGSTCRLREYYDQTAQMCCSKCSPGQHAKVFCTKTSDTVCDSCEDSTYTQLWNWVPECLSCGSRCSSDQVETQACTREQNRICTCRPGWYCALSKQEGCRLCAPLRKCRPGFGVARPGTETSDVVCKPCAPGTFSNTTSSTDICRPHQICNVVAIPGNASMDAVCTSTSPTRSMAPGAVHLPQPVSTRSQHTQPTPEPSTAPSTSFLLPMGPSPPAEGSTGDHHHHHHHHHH
# experiment.description: BLI (Octet RED96), antibody captured on AHC biosensor, His-tagged TNFR2 in solution, 1:1 model
Use nM as the unit, but write only the number.

11C1 chimeric anti-TNFR2 antibody (antibody, V domains shown, Chimeric: mouse variable domains with human constant regions, made as recombinant IgG1) VH: DVQLRESGPGLVTPSQSLSLTCSVTGYSITSGYYWNWIRQIPGNKLEWMGYITYDGNNNYDPSLKNRISITRDTSKNQFFLTLNSVTSEDTATYYCARGDYGDSAMDYWGQGTSVTVSS VL: EIVLTQSPAITAASLGQKVTITCSASSSVSYMHWYQQKSGTSPKPWIYEISKLASGVPARFSGSGSGTSYSLIISSMEAEDAAIYYCQQWNYPLITFGAGTKLELK; 2.46
29G3 chimeric anti-TNFR2 antibody (antibody, V domains shown, Chimeric: mouse variable domains with human constant regions, made as recombinant IgG1) VH: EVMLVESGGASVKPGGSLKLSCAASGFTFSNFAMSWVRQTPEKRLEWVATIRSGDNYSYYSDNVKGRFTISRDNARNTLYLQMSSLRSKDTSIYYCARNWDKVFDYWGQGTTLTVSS VL: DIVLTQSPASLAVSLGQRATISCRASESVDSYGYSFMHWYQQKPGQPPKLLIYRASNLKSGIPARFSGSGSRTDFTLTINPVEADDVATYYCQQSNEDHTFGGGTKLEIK; 4.53

As a next step, examine the binder that follows.
Given the binder 85G8.4 chimeric anti-TNFR2 antibody (antibody, V domains shown, Chimeric: mouse variable domains with human constant regions, made as recombinant IgG1) VH: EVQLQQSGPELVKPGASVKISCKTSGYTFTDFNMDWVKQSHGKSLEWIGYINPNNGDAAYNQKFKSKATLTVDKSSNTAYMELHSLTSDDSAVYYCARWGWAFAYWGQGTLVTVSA VL: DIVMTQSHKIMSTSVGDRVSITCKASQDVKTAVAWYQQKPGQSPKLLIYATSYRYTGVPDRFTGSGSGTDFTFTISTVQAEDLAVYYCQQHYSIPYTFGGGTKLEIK , what is its reported Kd?
1.95
